Reference source: patent US20070173499A1

Target: σ1 receptor (Homo sapiens)
Construct: endogenous in cells
Assay: in vitro binding assay for σ1 receptor, Jurkat cell membranes, [3H]haloperidol
Conditions: [3H]haloperidol 10 nM, read-out: binding affinity to σ1 receptor, Ki
PROPERTY: Ki

## Task Endpoint output: Ki of CC(CN(C)C)OCc1cc2c(s1)-c1cc3c(cc1Oc1ccccc1-2)CCCC3 (stereo not shown) . Value?
## Result < 100 nM

====

Biological target: 5-HT2A receptor (Homo sapiens)
Construct: expressed in transfected cells; host or cells: CHO-K1 (or COS-7); alternatively human cortex tissue
Sequence (P28223 whole entry): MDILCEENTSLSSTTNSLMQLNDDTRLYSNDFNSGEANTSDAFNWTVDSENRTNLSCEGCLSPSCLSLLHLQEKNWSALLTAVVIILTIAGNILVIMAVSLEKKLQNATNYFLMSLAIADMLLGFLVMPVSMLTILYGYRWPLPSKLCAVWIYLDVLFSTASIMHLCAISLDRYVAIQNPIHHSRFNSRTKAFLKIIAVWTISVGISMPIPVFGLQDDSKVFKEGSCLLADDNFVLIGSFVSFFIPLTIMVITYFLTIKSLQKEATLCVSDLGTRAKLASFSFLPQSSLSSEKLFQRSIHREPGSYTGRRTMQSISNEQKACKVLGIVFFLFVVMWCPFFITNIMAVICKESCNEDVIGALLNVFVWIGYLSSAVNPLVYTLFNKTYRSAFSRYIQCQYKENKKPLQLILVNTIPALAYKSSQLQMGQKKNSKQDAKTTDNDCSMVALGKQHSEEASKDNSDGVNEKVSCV
Test: radioligand binding assay for 5-HT2A receptor ([3H]-ketanserin)
pKi: −log10 of the molar value.
PROPERTY: pKi

## Task Endpoint output: pKi of CN(C)CCCOCc1cc2c(s1)-c1cc3ccccc3cc1Sc1ccccc1-2 . Value?
## Result > 7.00

====

Target: σ1 receptor (Homo sapiens, UniProt Q99720)
Construct: endogenous in cells
Sequence (Q99720 whole entry): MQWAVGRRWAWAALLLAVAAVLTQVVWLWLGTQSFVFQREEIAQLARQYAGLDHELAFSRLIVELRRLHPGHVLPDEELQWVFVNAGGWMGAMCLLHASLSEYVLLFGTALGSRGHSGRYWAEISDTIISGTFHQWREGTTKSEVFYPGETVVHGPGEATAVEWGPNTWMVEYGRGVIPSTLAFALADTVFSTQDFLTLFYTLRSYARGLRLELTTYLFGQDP
Experiment: in vitro binding assay for σ1 receptor, Jurkat cell membranes, [3H]haloperidol
Conditions: [3H]haloperidol 10 nM, read-out: binding affinity to σ1 receptor expressed as IC50
PROPERTY: IC50

## Task What IC50 appears in the records for this compound with σ1 receptor (Homo sapiens, UniProt Q99720)? CC(CN(C)C)OCc1cc2c(s1)-c1cc3c(cc1Oc1ccccc1-2)CCCC3 (stereo not shown)
## Result < 200 nM

====

Molecular target: 5-HT2C receptor (Homo sapiens, UniProt P28335)
Construct: expressed in transfected cells; host or cells: CHO-K1 (or COS-7); alternatively choroid plexus tissue
Sequence (P28335 33-458): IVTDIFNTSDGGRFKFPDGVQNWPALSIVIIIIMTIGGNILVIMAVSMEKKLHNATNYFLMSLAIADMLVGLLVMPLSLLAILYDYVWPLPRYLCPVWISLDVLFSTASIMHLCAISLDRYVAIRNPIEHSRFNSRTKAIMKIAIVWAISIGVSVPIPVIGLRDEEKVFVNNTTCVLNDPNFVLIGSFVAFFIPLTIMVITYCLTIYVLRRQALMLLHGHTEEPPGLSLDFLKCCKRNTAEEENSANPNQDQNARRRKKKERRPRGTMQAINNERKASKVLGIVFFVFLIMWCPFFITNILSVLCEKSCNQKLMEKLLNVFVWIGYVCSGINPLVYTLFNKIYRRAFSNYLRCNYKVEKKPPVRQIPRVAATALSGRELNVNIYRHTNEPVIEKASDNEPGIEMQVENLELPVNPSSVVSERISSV
Test: radioligand binding assay for 5-HT2C receptor ([3H]-mesulergine)
PROPERTY: Ki

## Task Endpoint output: Ki of CN(C)CCCOCc1cc2c(s1)-c1cc3ccccc3cc1Sc1ccccc1-2 . Value?
## Result < 100 nM
